Data origin, for the record: patent US10550115B2

Assay: Aqueous solubility
Type: physicochemical
Settings: aqueous medium (not further specified)
RECORDED_ENDPOINT: solubility

Data request: Provide solubility value for the following molecule: `c1ccc(-c2cnc3ccc4ncccc4c3n2)cc1`
Data returned: < 10 µg/mL

====

Assay: In vivo study of BBB crossing, HPLC-MS/MS of plasma and brain after IV injection
Set-up: species or system CD-1 mice
Settings: CD-1, brain and plasma; 30 min after IV injection of 1 mg/kg; mean plasma volume of a mouse evaluated at 1.5 mL; read-out: Log [brain]/[plasma]
RECORDED_ENDPOINT: Kp at 30 min
Reply with the value as a number alone.

Data request: Provide Kp at 30 min value for the following molecule: c1ccc(-c2cnc3ccc4ncccc4c3n2)cc1 [Iac, 3-phenyl-1,4,8-triazaphenanthrene]
Data returned: 0.02

====

Test: In vivo study of BBB crossing, HPLC-MS/MS of plasma and brain after IV injection
Set-up: species or system CD-1 mice
Conditions: CD-1, mouse, plasma; 30 min after IV injection of 1 mg/kg, mice
RECORDED_ENDPOINT: concentration at 30 min (nM)
Give just the numeric value; nM need not be written.

Data request: Provide concentration at 30 min value for the following compound: `c1ccc(-c2cnc3ccc4ncccc4c3n2)cc1`
Data returned: 320

====

Test: In vivo study of BBB crossing, HPLC-MS/MS of plasma and brain after IV injection
Parameters: species or system CD-1 mice
Settings: CD-1, mouse, plasma; 5 min after IV injection of 1 mg/kg, mice
RECORDED_ENDPOINT: concentration at 5 min (nM)
Give just the numeric value; nM need not be written.

Data request: Provide concentration at 5 min value for the following molecule: `c1ccc(-c2cnc3ccc4ncccc4c3n2)cc1`
Data returned: 2470
